SYSTEM_NAME: T1, CD47-Fc (UniProt Q08722 19-139)
T1 construct: purified recombinant target-Fc protein; not shown: Fc
TEST_NAME: phage ELISA, target-Fc against non-specific control
PROPERTY_LABEL: ELISA ratio (target to background) (ratio)
Give the value in ratio but do not write ratio after it.

[Q] What value of measured ELISA ratio (target to background) is listed for SEQ ID NO 24 (designed binder) MGSWTEFYSRLEAIWVRLQALGGSEAELAMFEDRIAHFEWFLQQYKGKGNPEVEALHEEAIAIRKELAAYRHN ?
[A] 4.58

[Q] # lookup: ELISA ratio (target to background) of SEQ ID NO 20 (designed binder) MGSWYEFDLRLHAIYDRLVALGGSEAELAAFEKEIAAFESELQAYKGKGNPEVEILRDNAAYIRQMLQAYRHN
[A] 14.1

[Q] Given SEQ ID NO 22 (designed binder) MGSWAEFDHRLHAIRERLHALGGSEAELAAFEKEIAAFESELQAYKGKGNPEVEILRGNAAYIRALLQAYRHN , state its recorded ELISA ratio (target to background).
[A] 11.7

[Q] Quick one: ELISA ratio (target to background) for SEQ ID NO 23 (designed binder) MGSWTEFVGRLAAIEFRLWALGGSEAELAWFEAHIAFFEDYLQWYKGKGNPEVEALREEAGAIMEELKAYRHN ?
[A] 8.23

[Q] So what does the record say about ELISA ratio (target to background) for SEQ ID NO 21 (designed binder) MGSWTEFTYRLSAIEWRLWALGGSEAELAWFEQKIAFFEDFLQYYKGKGNPEVEALKHEAGAILNELMAYRHN ?
[A] 12.5
